# credit: ChEMBL document CHEMBL5724914

assay_method_text: The drug is tested on WLS-010 corresponding to human gut metagenome with ENA study accession number: PRJEB37062 and ENA sample accession number: ERS12561743 for biotransformation under anaerobic condition. The drug concentrations were measured over 9 timepoints collected between 0 and 24 hours of incubation by liquid-chromatography-coupled mass spectrometry (LC–MS); note: call rule not given here
condition_set: 2 µM
parameter_measured: Bacterial Biotransformation

molecule="CC(C)(C)NCC(O)COc1cccc2c1CC(O)C(O)C2 (stereo not drawn) [NADOLOL]" observed_result="Compound NOT metabolized"
molecule="CCc1oc2ccccc2c1C(=O)c1cc(Br)c(O)c(Br)c1 [BENZBROMARONE]" observed_result="Compound metabolized"
molecule="O=C1CN2Cc3c(ccc(Cl)c3Cl)N=C2N1 [ANAGRELIDE]" observed_result="Compound metabolized"
molecule="O=C(O)CCC(=O)O.O=C(O[C@H]1CN2CCC1CC2)N1CCc2ccccc2[C@@H]1c1ccccc1 [SOLIFENACIN SUCCINATE]" observed_result="Compound metabolized"

Ask: Answer with the recorded Bacterial Biotransformation of CCCN(CCC)CCc1cccc2c1CC(=O)N2 [ROPINIROLE] only.
Result: Compound NOT metabolized

Ask: Answer with the recorded Bacterial Biotransformation of Br.CN1CCC[C@@H]1Cc1c[nH]c2ccc(CCS(=O)(=O)c3ccccc3)cc12 [ELETRIPTAN HYDROBROMIDE] only.
Result: Compound metabolized

Ask: Answer with the recorded Bacterial Biotransformation of CCCCC(=O)O[C@]1(C(=O)CO)[C@@H](C)C[C@H]2[C@@H]3CCC4=CC(=O)C=C[C@]4(C)[C@@]3(F)[C@@H](O)C[C@@]21C [BETAMETHASONE VALERATE] only.
Result: Compound metabolized

Ask: Answer with the recorded Bacterial Biotransformation of CSc1ccc2c(c1)C(N1CCN(C)CC1)Cc1ccccc1S2.O=C(O)/C=C\C(=O)O (stereo not drawn) only.
Result: Compound metabolized
